# target_or_test_system: A2A receptor (Homo sapiens, UniProt P29274)
# Construct: host or cells: HEK-293
# Sequence (P29274 whole entry): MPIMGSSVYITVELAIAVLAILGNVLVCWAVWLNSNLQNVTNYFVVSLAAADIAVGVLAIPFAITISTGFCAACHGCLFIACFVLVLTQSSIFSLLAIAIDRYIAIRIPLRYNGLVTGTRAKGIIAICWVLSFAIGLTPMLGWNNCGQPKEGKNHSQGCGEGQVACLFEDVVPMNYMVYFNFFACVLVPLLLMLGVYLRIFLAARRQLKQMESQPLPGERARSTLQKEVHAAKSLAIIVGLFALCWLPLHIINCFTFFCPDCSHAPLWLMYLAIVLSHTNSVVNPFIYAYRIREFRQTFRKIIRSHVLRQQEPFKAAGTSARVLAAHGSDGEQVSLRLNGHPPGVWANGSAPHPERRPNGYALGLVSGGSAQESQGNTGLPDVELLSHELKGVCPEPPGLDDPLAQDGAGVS
# experiment_description: A2aR antagonism IC50, cAMP TR-FRET in HEK-293 cells, high concentration of adenosine (30 μM);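 note: compounds added 10 min before adenosine, then 30 min stimulation at room temperature in buffer with 100 µM rolipram and 30 µM EHNA, signal read 1 h after detection reagents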
# Format: cell-based
# experimental_setup: HEK-293 cells expressing A2A receptor; agonist adenosine 30 μM; 2% HSA; inhibition of cAMP; read-out: A2AR IC50 (nM) (@30 μM Adenosine)
metric: IC50 (nM)

{"molecule": "CCc1c(C)nn2c(N)c(C#N)c(NCCc3cc(C)n(C4COCC4CO)n3)nc12 (single isomer, unassigned) [Example 167]", "target_or_test_system": "A2A receptor (Homo sapiens, UniProt P29274)", "quantity_unit": "nM", "relational_operator": "=", "test_value": 100}
{"molecule": "CCc1c(C(F)F)nn2c(N)c(C#N)c(NCCc3cccc(C4CC4CO)n3)nc12 (stereo not drawn)", "target_or_test_system": "A2A receptor (Homo sapiens, UniProt P29274)", "quantity_unit": "nM", "relational_operator": "=", "test_value": 1080}
{"molecule": "Cc1nn2c(N)c(C#N)c(NCCc3ccn(CC4CC(O)C4)n3)nc2c1Cl (single isomer, unassigned; (-)) [Example 84]", "target_or_test_system": "A2A receptor (Homo sapiens, UniProt P29274)", "quantity_unit": "nM", "relational_operator": "=", "test_value": 102}
{"molecule": "CCc1c(C)nn2c(N)c(C#N)c(NCCc3cccn(CC[S+](C)[O-])c3=O)nc12 (racemic) [Example 143]", "target_or_test_system": "A2A receptor (Homo sapiens, UniProt P29274)", "quantity_unit": "nM", "relational_operator": "=", "test_value": 667}
{"molecule": "CCc1c(C)nn2c(N)c(C#N)c(NCCc3cccc(C4(CO)CC4)n3)nc12", "target_or_test_system": "A2A receptor (Homo sapiens, UniProt P29274)", "quantity_unit": "nM", "relational_operator": "=", "test_value": 2160}
{"molecule": "Cc1nn2c(N)c(C#N)c(NCCc3ccn(C4CCC4CNCCO)n3)nc2c1Cl (stereo not drawn)", "target_or_test_system": "A2A receptor (Homo sapiens, UniProt P29274)", "quantity_unit": "nM", "relational_operator": "=", "test_value": 66}
{"molecule": "CCc1c(C)nn2c(N)c(C#N)c(NCCc3ccn(C4CCCC4CO)n3)nc12 (stereo not drawn)", "target_or_test_system": "A2A receptor (Homo sapiens, UniProt P29274)", "quantity_unit": "nM", "relational_operator": "=", "test_value": 117}
{"molecule": "Cc1nn2c(N)c(C#N)c(NCCc3cccc(CO)n3)nc2c1Br", "target_or_test_system": "A2A receptor (Homo sapiens, UniProt P29274)", "quantity_unit": "nM", "relational_operator": "=", "test_value": 362}
{"molecule": "CCc1c(C)nn2c(N)c(C#N)c(NCCc3ccn(C4CCC4CN)n3)nc12 (stereo not drawn)", "target_or_test_system": "A2A receptor (Homo sapiens, UniProt P29274)", "quantity_unit": "nM", "relational_operator": "=", "test_value": 402}
{"molecule": "CCc1c(C)nn2c(N)c(C#N)c(NCCc3ccc(F)c(CO)n3)nc12", "target_or_test_system": "A2A receptor (Homo sapiens, UniProt P29274)", "quantity_unit": "nM", "relational_operator": "=", "test_value": 628}
{"molecule": "CCc1c(C)nn2c(N)c(C#N)c(NCCc3cccc(CO)n3)nc12", "target_or_test_system": "A2A receptor (Homo sapiens, UniProt P29274)", "quantity_unit": "nM", "relational_operator": "=", "test_value": 935}
{"molecule": "Cc1cncc(CCNc2nc3c(C)c(C)nn3c(N)c2C#N)n1", "target_or_test_system": "A2A receptor (Homo sapiens, UniProt P29274)", "quantity_unit": "nM", "relational_operator": "=", "test_value": 6020}
{"molecule": "CCn1cccc(CCNc2nc3c(Cl)c(C)nn3c(N)c2C#N)c1=O", "target_or_test_system": "A2A receptor (Homo sapiens, UniProt P29274)", "quantity_unit": "nM", "relational_operator": "=", "test_value": 125}
{"molecule": "CCc1c(C(F)F)nn2c(N)c(C#N)c(NCCc3ccn(C4(CO)CC4)n3)nc12", "target_or_test_system": "A2A receptor (Homo sapiens, UniProt P29274)", "quantity_unit": "nM", "relational_operator": "=", "test_value": 756}
{"molecule": "CCc1cccc(CCNc2nc3c(Cl)c(C)nn3c(N)c2C#N)n1", "target_or_test_system": "A2A receptor (Homo sapiens, UniProt P29274)", "quantity_unit": "nM", "relational_operator": "=", "test_value": 529}
{"molecule": "Cc1nn2c(N)c(C#N)c(NCCc3ccn(C4(CO)CC4)n3)nc2c1CC1CC1", "target_or_test_system": "A2A receptor (Homo sapiens, UniProt P29274)", "quantity_unit": "nM", "relational_operator": "=", "test_value": 398}
{"molecule": "CCc1c(C)nn2c(N)c(C#N)c(NCCc3cccn(CCCNC(C)=O)c3=O)nc12", "target_or_test_system": "A2A receptor (Homo sapiens, UniProt P29274)", "quantity_unit": "nM", "relational_operator": "=", "test_value": 294}
{"molecule": "Cc1nn2c(N)c(C#N)c(NCCc3cnn(C4(CO)CC4)c3)nc2c1Cl", "target_or_test_system": "A2A receptor (Homo sapiens, UniProt P29274)", "quantity_unit": "nM", "relational_operator": ">", "test_value": 15000}
{"molecule": "Cc1nn2c(N)c(C#N)c(NCCc3ccn(C4COCC4CO)n3)nc2c1C (racemic) [Example 132]", "target_or_test_system": "A2A receptor (Homo sapiens, UniProt P29274)", "quantity_unit": "nM", "relational_operator": "=", "test_value": 248}
{"molecule": "COCCn1cccc(CCNc2nc3c(Cl)c(C)nn3c(N)c2C#N)c1=O", "target_or_test_system": "A2A receptor (Homo sapiens, UniProt P29274)", "quantity_unit": "nM", "relational_operator": "=", "test_value": 79}
{"molecule": "Cc1nn2c(N)c(C#N)c(NCCc3cc(C)n(C4(CO)CC4)n3)nc2c1C", "target_or_test_system": "A2A receptor (Homo sapiens, UniProt P29274)", "quantity_unit": "nM", "relational_operator": "=", "test_value": 43}
{"molecule": "Cc1nn2c(N)c(C#N)c(NCCc3ccn(C4COCC4CO)n3)nc2c1Cl (stereo not drawn)", "target_or_test_system": "A2A receptor (Homo sapiens, UniProt P29274)", "quantity_unit": "nM", "relational_operator": "=", "test_value": 161}
{"molecule": "Cc1nn2c(N)c(C#N)c(NCCc3cccc(C(F)(F)CO)n3)nc2c1Cl", "target_or_test_system": "A2A receptor (Homo sapiens, UniProt P29274)", "quantity_unit": "nM", "relational_operator": "=", "test_value": 284}
{"molecule": "CCc1c(C)nn2c(N)c(C#N)c(NCCc3ccn(C4(CNCC[S+](C)[O-])CC4)n3)nc12 (single isomer, unassigned; (-)) [Example 163a]", "target_or_test_system": "A2A receptor (Homo sapiens, UniProt P29274)", "quantity_unit": "nM", "relational_operator": "=", "test_value": 72}
{"molecule": "Cc1nn2c(N)c(C#N)c(NCCc3ccn(C4(CNCCO)CC4)n3)nc2c1Cl", "target_or_test_system": "A2A receptor (Homo sapiens, UniProt P29274)", "quantity_unit": "nM", "relational_operator": "=", "test_value": 100}
{"molecule": "Cc1nn2c(N)c(C#N)c(NCCc3cccn(CCCN)c3=O)nc2c1C", "target_or_test_system": "A2A receptor (Homo sapiens, UniProt P29274)", "quantity_unit": "nM", "relational_operator": "=", "test_value": 679}
{"molecule": "CCc1c(C)nn2c(N)c(C#N)c(NCCc3ccn(CCC[S+](C)[O-])n3)nc12 (single isomer, unassigned; (-)) [Example 162a]", "target_or_test_system": "A2A receptor (Homo sapiens, UniProt P29274)", "quantity_unit": "nM", "relational_operator": "=", "test_value": 1880}
{"molecule": "Cc1nn2c(N)c(C#N)c(NCCc3cc(C)n(C4(CO)CC4)n3)nc2c1Br", "target_or_test_system": "A2A receptor (Homo sapiens, UniProt P29274)", "quantity_unit": "nM", "relational_operator": "=", "test_value": 66}
{"molecule": "Cc1nn2c(N)c(C#N)c(NCCc3cccc(C(C)(C)CO)n3)nc2c1Cl", "target_or_test_system": "A2A receptor (Homo sapiens, UniProt P29274)", "quantity_unit": "nM", "relational_operator": "=", "test_value": 227}
{"molecule": "CCc1c(C)nn2c(N)c(C#N)c(NCCc3cccc(C)n3)nc12", "target_or_test_system": "A2A receptor (Homo sapiens, UniProt P29274)", "quantity_unit": "nM", "relational_operator": "=", "test_value": 260}
{"molecule": "CCc1c(C)nn2c(N)c(C#N)c(NCCc3ccn(C4COCC4CO)n3)nc12 (racemic) [Example 121]", "target_or_test_system": "A2A receptor (Homo sapiens, UniProt P29274)", "quantity_unit": "nM", "relational_operator": "=", "test_value": 245}
{"molecule": "CCc1c(C(F)F)nn2c(N)c(C#N)c(NCCc3cccn(CCO)c3=O)nc12", "target_or_test_system": "A2A receptor (Homo sapiens, UniProt P29274)", "quantity_unit": "nM", "relational_operator": "=", "test_value": 1460}
{"molecule": "CCc1c(C)nn2c(N)c(C#N)c(NCCc3cccn(CCCSC)c3=O)nc12", "target_or_test_system": "A2A receptor (Homo sapiens, UniProt P29274)", "quantity_unit": "nM", "relational_operator": "=", "test_value": 195}
